# System: Human umbilical venal epithelial cell (HUVEC)
# EXPERIMENT_DESCRIPTION: in vitro
# TEST_CONTEXT: HUVEC
Attribute: LC50 (50% lethal concentration)
Give the number; µg/mL is assumed, so skip it.

Consider the following illustrative entries.
1) CC(C)=CCc1c2c(c(O)c3c1O[C@@]1(C)CCC4C3C1C4(C)C)C(=O)C1=C[C@@H]3CC4C(C)(C)O[C@](C/C=C(/C)C(=O)O)(C3=O)[C@@]14O2 [Gh-2607-1A, epiformoxanthone B] : 1.5
2) CC(C)=CCC[C@@]1(C)C=Cc2c(O)c3c(c(CC=C(C)C)c2O1)O[C@]12C(=C[C@@H]4CC1C(C)(C)O[C@]2(C/C=C(/C)C(=O)O)C4=O)C3=O [Gh-2606, epigambogic acid] : 1.4

Now look at this one.
Item under review: CC(C)=CCC[C@]1(C)C[C@H](O)c2c(O)c3c(c(CC=C(C)C)c2O1)O[C@]12C(=C[C@@H]4CC1C(C)(C)O[C@]2(C/C=C(/C)C(=O)O)C4=O)C3=O (stereo in doubt) . Reported LC50 (50% lethal concentration)?
4.3
